biological target: Galectin-3 (Homo sapiens, UniProt P17931); assay: fluorescence anisotropy assay: The affinity of Example 1-33 for galectins were determined by a fluorescence anisotropy assay where the compound was used as an inhibitor of the interaction between galectin and a fluorescein tagged saccharide probe as described Sörme, P., Kahl-Knutsson, B., Huflejt, M., Nilsson, U. J., and Leffler H. (2004) Fluorescence polarization as an analytical tool to evaluate galectin-ligand interactions. Anal. Biochem. 334: 36-47, (Sörme et al., 2004) and Monovalent interactions of Galectin-1 By Salomonsson, Emma; Larumbe, Amaia; Tejler, Johan; Tullberg, Erik; Rydberg, Hanna; Sundin, Anders; Khabut, Areej; Frejd, Torbjorn; Lobsanov, Yuri D.; Rini, James M.; et al, From Biochemistry (2010), 49(44), 9518-9532, (Salomonsson et al., 2010).
Sequence (P17931 whole entry): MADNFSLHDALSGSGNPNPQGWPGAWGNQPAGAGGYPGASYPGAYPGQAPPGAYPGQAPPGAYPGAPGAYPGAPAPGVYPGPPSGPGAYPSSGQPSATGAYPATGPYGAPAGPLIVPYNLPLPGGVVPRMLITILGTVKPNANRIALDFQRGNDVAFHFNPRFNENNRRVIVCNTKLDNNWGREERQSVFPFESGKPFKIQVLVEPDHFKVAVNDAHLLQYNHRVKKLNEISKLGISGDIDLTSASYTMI
observable: pKd
Field pKd (float): negative decimal logarithm of the concentration in molar.

// query Form field: reported pKd of `OC[C@H]1O[C@H](Sc2ccc(Cl)c(Cl)c2)[C@H](O)[C@@H](n2cc(-c3nc(O)cs3)nn2)[C@H]1O`
// result 5.77

Source listed as ChEMBL document CHEMBL5728583.
